All figures here come from paper PMC8869731.

study system: KasQ (Streptomyces kasugaensis)
Sequence (A0A0K1H2R6 entry or part of it): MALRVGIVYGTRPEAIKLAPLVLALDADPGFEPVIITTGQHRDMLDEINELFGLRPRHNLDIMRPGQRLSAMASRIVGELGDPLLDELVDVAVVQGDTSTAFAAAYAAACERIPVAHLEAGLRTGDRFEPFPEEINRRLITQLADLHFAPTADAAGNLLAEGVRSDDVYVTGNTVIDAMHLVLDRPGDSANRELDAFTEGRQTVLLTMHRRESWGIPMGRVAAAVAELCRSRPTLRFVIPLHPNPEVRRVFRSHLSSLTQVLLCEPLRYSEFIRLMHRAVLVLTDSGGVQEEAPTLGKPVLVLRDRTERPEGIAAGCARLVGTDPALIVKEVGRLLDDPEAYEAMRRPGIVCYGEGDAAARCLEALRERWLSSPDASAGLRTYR
assay details: Isothermal titration calorimetry (ITC) of KasQ wild type versus substrates;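 note: titration of 1 mM substrate into 0.1 mM KasQ, 18 injections spaced 120 s, data fitted to a single-site binding model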
Format: binding
test context: ITC; KasQ wild type
measurement label: ∆S

Use the examples below as a reference point.
compound	study system	assay result
Nc1nc2c(ncn2[C@@H]2O[C@H](COP(=O)(O)O)[C@@H](O)[C@H]2O)c(=O)[nH]1	KasQ (Streptomyces kasugaensis)	NBD
CC(=O)N[C@H]1C(O)O[C@H](CO)[C@H](O)[C@@H]1O (some centres unmarked)	KasQ (Streptomyces kasugaensis)	NBD
O=c1ccn([C@@H]2O[C@H](COP(=O)(O)OP(=O)(O)O)[C@@H](O)[C@H]2O)c(=O)[nH]1	KasQ (Streptomyces kasugaensis)	6.70 cal mol^−1 K^−1
N[C@H]1C(O)O[C@H](CO)[C@@H](O)[C@@H]1O (some centres unmarked)	KasQ (Streptomyces kasugaensis)	NBD
CC(=O)N[C@H]1C(O)O[C@H](CO)[C@@H](O)[C@@H]1O (some centres unmarked)	KasQ (Streptomyces kasugaensis)	NBD
Cc1cn([C@H]2C[C@H](O)[C@@H](COP(=O)(O)OP(=O)(O)OP(=O)(O)O)O2)c(=O)[nH]c1=O	KasQ (Streptomyces kasugaensis)	−8.33 cal mol^−1 K^−1

Input line: // lookup ∆S for "CC(=O)N[C@H]1[C@@H](OP(=O)(O)OP(=O)(O)OC[C@H]2O[C@@H](n3ccc(=O)[nH]c3=O)[C@H](O)[C@@H]2O)O[C@H](CO)[C@H](O)[C@@H]1O"
Output line: 4.44 cal mol^−1 K^−1

Input line: // lookup ∆S for O=C(O)[C@H]1OC(O)[C@H](O)[C@@H](O)[C@@H]1O (some centres unmarked)
Output line: NBD

----------
Overview of reported ∆G across a group of molecules:
study system: UniProtKB A0A0K1H2T0
Sequence (A0A0K1H2T0 entry or part of it): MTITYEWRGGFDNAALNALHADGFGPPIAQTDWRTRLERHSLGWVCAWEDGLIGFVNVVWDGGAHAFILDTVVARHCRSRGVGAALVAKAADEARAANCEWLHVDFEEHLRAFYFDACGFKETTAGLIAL
assay details: ITC of KasH versus ligands;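 note: isothermal titration calorimetry at 25 °C, 0.1 mM KasH in the cell titrated with 1 mM ligand over 18 injections, data fit with a one-site binding model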
test context: ITC; KasH
Number only, in kcal/mol; omit the unit.

Use the examples below as a reference point.
molecule	assay result
CC(C)CC(=O)SCCNC(=O)CCNC(=O)[C@H](O)C(C)(C)COP(=O)(O)OP(=O)(O)OC[C@H]1O[C@@H](n2cnc3c(N)ncnc32)[C@H](O)[C@@H]1OP(=O)(O)O [Isovaleryl-CoA, isovaleryl-CoA]	-5.048
CC(C)(COP(=O)(O)OP(=O)(O)OC[C@H]1O[C@@H](n2cnc3c(N)ncnc32)[C@H](O)[C@@H]1OP(=O)(O)O)[C@@H](O)C(=O)NCCC(=O)NCCS [CoA]	-5.478
CC(=O)CC(=O)SCCNC(=O)CCNC(=O)[C@H](O)C(C)(C)COP(=O)(O)OP(=O)(O)OC[C@H]1O[C@@H](n2cnc3c(N)ncnc32)[C@H](O)[C@@H]1OP(=O)(O)O [Acetoacetyl-CoA, acetoacetyl-CoA]	-5.469

Input line: // lookup ∆G for C[C@H]1O[C@H](O[C@H]2[C@H](O)[C@@H](O)[C@@H](O)[C@H](O)[C@@H]2O)[C@@H](N)C[C@@H]1NC(=N)C(=O)O [KSM, Kasugamycin]
Output line: -5.804

Input line: // lookup ∆G for CCC(=O)SCCNC(=O)CCNC(=O)[C@H](O)C(C)(C)COP(=O)(O)OP(=O)(O)OC[C@H]1O[C@@H](n2cnc3c(N)ncnc32)[C@H](O)[C@@H]1OP(=O)(O)O [Propionyl-CoA, propionyl-CoA]
Output line: -6.081

Input line: // lookup ∆G for CC(=O)SCCNC(=O)CCNC(=O)[C@H](O)C(C)(C)COP(=O)(O)OP(=O)(O)OC[C@H]1O[C@@H](n2cnc3c(N)ncnc32)[C@H](O)[C@@H]1OP(=O)(O)O [AcCoA]
Output line: -5.240
